The reported numbers originate from PubChem BioAssay AID504457.

- system-under-test: Type-1 angiotensin II receptor (Homo sapiens) (UniProt P30556)
- Sequence (P30556 whole entry, looked up): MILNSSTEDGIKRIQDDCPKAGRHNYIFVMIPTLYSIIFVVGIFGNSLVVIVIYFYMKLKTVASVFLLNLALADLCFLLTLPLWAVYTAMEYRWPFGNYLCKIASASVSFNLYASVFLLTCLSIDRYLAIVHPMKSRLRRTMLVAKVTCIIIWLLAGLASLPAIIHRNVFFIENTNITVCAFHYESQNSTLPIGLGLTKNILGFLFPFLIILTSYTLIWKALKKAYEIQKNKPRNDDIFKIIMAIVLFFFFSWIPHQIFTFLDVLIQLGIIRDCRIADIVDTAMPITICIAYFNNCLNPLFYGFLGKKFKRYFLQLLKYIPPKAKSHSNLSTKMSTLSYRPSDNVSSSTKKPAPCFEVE
- experiment: AT1 receptor antagonists, angiotensin II-stimulated, SAR follow-up, selectivity assay for APJ receptor antagonist project, cell-based, CHO-K1 AGTR1, beta-arrestin, luminescence, set 5 (AID 504457)
- run-conditions: CHO-K1 AGTR1 PathHunter beta-arrestin
Active and inactive are the calls of the source.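 Rule for the calls: active = compounds with IC50 below 20 µM; inactive = the rest.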
metric: IC50

Examples from the recorded data:
> print(dat)
                                   molecule      reported.value
1                   O=c1cc(CSc2ncccn2)occ1O  > 79 µM (inactive)
2  N#Cc1ccc(C(=O)Oc2coc(CSc3ncccn3)cc2=O)cc1  > 79 µM (inactive)
3    COc1ccccc1NC(=O)CN1C(=O)C(=O)c2ccccc21  > 79 µM (inactive)
4                 C=CCOc1ccc(COc2ccccc2)cc1  > 79 µM (inactive)
5  Cc1cc(C)nc(SCc2cc(=O)c(OC(=O)c3cc([N+](=O)[O-])ccc3Cl)co2)n1            inactive
6           Cc1cc(C)nc(SCc2cc(=O)c(O)co2)n1  > 79 µM (inactive)

Fill in the blank: the reported IC50 of COc1cc(CSc2nc(C)cc(C)n2)ccc1O is ____.
> 79 µM (inactive)

Fill in the blank: the reported IC50 of CC(=O)Oc1cc2c(cc1Cl)C(c1ccccc1Cl)CC1(CC(C)(C)NC(=S)N1)O2 (centres undefined) is ____.
> 79 µM (inactive)

Fill in the blank: the reported IC50 of C=CCOc1ccc(CSc2nccc(C)n2)cc1 is ____.
> 79 µM (inactive)

Fill in the blank: the reported IC50 of C=CCOc1ccc(CSc2nc(C)cc(C)n2)cc1OC is ____.
> 79 µM (inactive)

Fill in the blank: the reported IC50 of CC1(C)CC2(CC(c3ccc(F)cc3)c3ccc(O)cc3O2)NC(=S)N1 (centres undefined) is ____.
inactive

Fill in the blank: the reported IC50 of Cc1ccccc1C1CC2(CC(C)(C)NC(=S)N2)Oc2cc(O)c(Cl)cc21 (centres undefined) is ____.
inactive

Fill in the blank: the reported IC50 of Cc1ccnc(SCc2cc(=O)c(OC(=O)c3ccc([N+](=O)[O-])cc3)co2)n1 is ____.
> 79 µM (inactive)

Fill in the blank: the reported IC50 of Cc1ccnc(SCc2cc(=O)c(OC(=O)c3ccccc3)co2)n1 is ____.
> 79 µM (inactive)
